Recorded measurements of Kd, one per entry
SUBJECT OF TEST: T1, biotinylated human DLL3 protein expressed as a human IgG1 fusion protein (human, UniProt Q9NYJ7 27-492, limits assumed, biotinylated)
T1 sequence: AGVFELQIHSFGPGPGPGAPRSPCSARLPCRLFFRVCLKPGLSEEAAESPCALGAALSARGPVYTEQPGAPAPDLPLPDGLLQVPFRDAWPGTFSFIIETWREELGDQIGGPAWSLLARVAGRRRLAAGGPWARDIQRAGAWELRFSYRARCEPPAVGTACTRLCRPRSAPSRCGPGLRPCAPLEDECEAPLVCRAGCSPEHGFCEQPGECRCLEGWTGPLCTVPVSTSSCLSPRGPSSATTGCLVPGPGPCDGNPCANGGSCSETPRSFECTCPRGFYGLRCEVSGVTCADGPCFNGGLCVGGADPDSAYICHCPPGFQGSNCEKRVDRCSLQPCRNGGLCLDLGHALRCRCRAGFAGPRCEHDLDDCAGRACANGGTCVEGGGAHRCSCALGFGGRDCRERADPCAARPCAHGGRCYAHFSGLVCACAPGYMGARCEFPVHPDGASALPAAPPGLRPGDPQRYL
ASSAY EXPLANATION: Octet BLI, single 50 nM
Supply the numeric figure in nM, leaving out any unit text.

BINDER | VALUE UNIT | Kd
1A04 anti-DLL3 trispecific protein (other, not shown: linker 1808, anti-albumin sdAb, linker 1808, anti-CD3 fragment, His6 1819) EVQLVESGGGLVQPGGSLTLSCVASGSTSSINAMGWYRRAPGKQRELVAGISSDGSKVYEDSVKGRFTISRDNAKNSVYLQMNSLRAEDTAVYYCYYFRTVSGSSMRYWGQGTLVTVSS | nM | 7.8
4A09 anti-DLL3 trispecific protein (other, not shown: linker 1808, anti-albumin sdAb, linker 1808, anti-CD3 fragment, His6 1819) EVQLVESGGGLVQPGGSLTLSCAASGSSVKFLSMAWYRQAPGKKRELVAGISADGSTDYIGSVKGRFTISRDNAKNSVYLQMNSLRAEDTAVYYCYAYRWTTRVTYWGQGTLVTVSS | nM | 9
1A011 anti-DLL3 trispecific protein (other, also called 1A11; not shown: linker 1808, anti-albumin sdAb, linker 1808, anti-CD3 fragment, His6 1819) EVQLVESGGGLVQPGGSLTLSCVASGSTSSINAIGWYRRAPGKQRELVAGISSDGSKVYIDSVKGRFTISRDNAKNSVYLQMNSLRAEDTAVYYCYYFRTVSGSSYRYWGQGTLVTVSS | nM | 3.7

q: Which value of Kd has been reported for 1C08 anti-DLL3 trispecific protein (other, not shown: linker 1808, anti-albumin sdAb, linker 1808, anti-CD3 fragment, His6 1819) EVQLVESGGGLVQPGGSLTLSCVASGSTSRINAMGWYRRAPGKQRELPAGISSDGSKVYAVSVKGRFTISRDNAKNSVYLQMNSLRAEDTAVYYCYYFRTVSGSPMRYWGQGTLVTVSS in the records?
a: 25

q: Next entry: 4D04 anti-DLL3 trispecific protein (other, not shown: linker 1808, anti-albumin sdAb, linker 1808, anti-CD3 fragment, His6 1819) EVQLVESGGGLVQPGGSLTLSCAASGSSVSFLSIAWYRQAPGKKRELVAGISKDGSTDYIDSVKGRFTISRDNAKNSVYLQMNSLRAEDTAVYYCYAYRWTTRMTYWGQGTLVTVSS
a: 8.6

q: Try 1E05 anti-DLL3 trispecific protein (other, not shown: linker 1808, anti-albumin sdAb, linker 1808, anti-CD3 fragment, His6 1819) EVQLVESGGGLVQPGGSLTLSCVASGSTSVINAMAWYRRAPGKQRELAAGISSDGSKVYAKSAKGRFTISRDNAKNSVYLQMNSLRAEDTAVYYCYYFNTVSGSSMRYWGQGTLVTVSS next.
a: 14

q: Also 3F08 anti-DLL3 trispecific protein (other, not shown: linker 1808, anti-albumin sdAb, linker 1808, anti-CD3 fragment, His6 1819) EVQLVESGGGLVQPGGSLTLSCAASGSRVSFLSMAWYRQAPGKKRELVAGISADGSTLYIDSVKGRFTISRDNAKNSVYLQMNSLRAEDTAVYYCYAYRWHTRYTYWGQGTLVTVSS ?
a: 14

q: And 3C011 anti-DLL3 trispecific protein (other, not shown: linker 1808, anti-albumin sdAb, linker 1808, anti-CD3 fragment, His6 1819) EVQLVESGGGLVQPGGSLTLSCAASGSSVRFLSMAWYRQAPGKKRELVAGISAHGSTDYIDSVKGRFTISRDNAKNSVYLQMNSLRAEDTAVYYCYAYRWRTRYTYWGQGTLVTVSS ?
a: 14

q: And what about the binder 1F01 anti-DLL3 trispecific protein (other, not shown: linker 1808, anti-albumin sdAb, linker 1808, anti-CD3 fragment, His6 1819) EVQLVESGGGLVQPGGSLTLSCVASGSTSSINAMGWYRRAPGKQRELVAGISSDGSKVYGDSVKGRFTISRDNAKNSVYLQMNSLRAEDTAVYYCYYFRTVSRSSMRYWGQGTLVTVSS ?
a: 9.4

q: Note, next up: 1D02 anti-DLL3 trispecific protein (other, not shown: linker 1808, anti-albumin sdAb, linker 1808, anti-CD3 fragment, His6 1819) EVQLVESGGGLVQPGGSLTLSCVASGSTSSINAMAWYRRAPGKQRELVAGISSNGSKVYADSVKGRFTISRDNAKNSVYLQMNSLRAEDTAVYYCYYFRQVSGSSMRYWGQGTLVTVSS
a: 14
